- procedure_text: Study MPKF: plasma pharmacokinetics of MDMA and MDA, single 120 mg MDMA·HCl, fasted/fed
- Format: in vivo, human
- protocol_conditions: human, plasma, oral, 120 mg, fasted treatment group; 2 h; read-out: PK plasma concentration, Median
- Experimental: The MPKF was a Phase 1, open-label, randomized sequence, multi-dose, 2-period crossover food effect study in 16 healthy individuals. The MPKF study evaluated plasma concentrations of both MDMA and the active metabolite 3,4-methylenedioxyamphetamine (MDA). […] Sample Collection: Blood samples were collected at various time points up to 72 hours after dosing. The samples were analyzed using validated liquid chromatography-tandem mass spectrometry (LC-MS/MS) methods. […]
measured_property: concentration at 2 h (ng/mL)

[
  {
    "compound": "CNC(C)Cc1ccc2c(c1)OCO2 (stereo not shown) [MDMA, 3,4-methylenedioxymethamphetamine]",
    "measured_property": "concentration at 2 h",
    "recorded_value": 211
  }
]

* * *

- procedure_text: Study MPKF: plasma pharmacokinetics of MDMA and MDA, single 120 mg MDMA·HCl, fasted/fed
- Format: in vivo, human
- protocol_conditions: human, plasma, oral, 120 mg, fasted treatment group; .5 h; read-out: PK plasma concentration, Geom. Mean
- Method: The MPKF was a Phase 1, open-label, randomized sequence, multi-dose, 2-period crossover food effect study in 16 healthy individuals. The MPKF study evaluated plasma concentrations of both MDMA and the active metabolite 3,4-methylenedioxyamphetamine (MDA). […] Sample Collection: Blood samples were collected at various time points up to 72 hours after dosing. The samples were analyzed using validated liquid chromatography-tandem mass spectrometry (LC-MS/MS) methods. […]

[
  {
    "molecule": "CNC(C)Cc1ccc2c(c1)OCO2 (stereo not shown) [MDMA, 3,4-methylenedioxymethamphetamine]",
    "unit_string": "µg/mL",
    "concentration at 0.5 h": 0.0393
  }
]

* * *

- procedure_text: Study MPKF: plasma pharmacokinetics of MDMA and MDA, single 120 mg MDMA·HCl, fasted/fed
- Format: in vivo, human
- protocol_conditions: human, plasma, oral, 120 mg, fed treatment group; 1 h; read-out: PK plasma concentration, Geom. Mean
measured_property: concentration at 1 h

[
  {
    "molecule": "CNC(C)Cc1ccc2c(c1)OCO2 (stereo not shown)",
    "recorded_value": "46.2 ng/mL"
  }
]

* * *

- procedure_text: Study MPKF: plasma pharmacokinetics of MDMA and MDA, single 120 mg MDMA·HCl, fasted/fed
- Format: in vivo, human
- protocol_conditions: human, plasma, oral, 120 mg, fed treatment group; 24 h; read-out: PK plasma concentration, Mean

[
  {
    "compound": "CNC(C)Cc1ccc2c(c1)OCO2 (stereo not shown)",
    "unit_string": "ng/mL",
    "concentration at 24 h": 50.5
  }
]

* * *

- procedure_text: Study MPKF: plasma pharmacokinetics of MDMA and MDA, single 120 mg MDMA·HCl, fasted/fed
- Assay type: in vivo, human
- protocol_conditions: human, plasma, oral, 120 mg, fed treatment group; 2 h; read-out: PK plasma concentration, Mean
measured_property: concentration at 2 h

[
  {
    "compound": "CNC(C)Cc1ccc2c(c1)OCO2 (stereo not shown)",
    "recorded_value": "129 ng/mL"
  }
]

* * *

- procedure_text: Study MPKF: plasma pharmacokinetics of MDMA and MDA, single 120 mg MDMA·HCl, fasted/fed
- Type: in vivo, human
- protocol_conditions: human, plasma, oral; single 120 mg dose of MDMA·HCl; read-out: volume of distribution
- Protocol: The MPKF was a Phase 1, open-label, randomized sequence, multi-dose, 2-period crossover food effect study in 16 healthy individuals. The MPKF study evaluated plasma concentrations of both MDMA and the active metabolite 3,4-methylenedioxyamphetamine (MDA). […] Sample Collection: Blood samples were collected at various time points up to 72 hours after dosing. The samples were analyzed using validated liquid chromatography-tandem mass spectrometry (LC-MS/MS) methods. […]
Counter-ions that a name gives are not always drawn.
measured_property: Vd (L)

[
  {
    "molecule": "CNC(C)Cc1ccc2c(c1)OCO2 (stereo not shown) [MDMA·HCl, MDMA hydrochloride]",
    "recorded_value": 430
  }
]
